# target-or-system: A2B receptor (Homo sapiens, UniProt P29275)
# Sequence (P29275 whole entry): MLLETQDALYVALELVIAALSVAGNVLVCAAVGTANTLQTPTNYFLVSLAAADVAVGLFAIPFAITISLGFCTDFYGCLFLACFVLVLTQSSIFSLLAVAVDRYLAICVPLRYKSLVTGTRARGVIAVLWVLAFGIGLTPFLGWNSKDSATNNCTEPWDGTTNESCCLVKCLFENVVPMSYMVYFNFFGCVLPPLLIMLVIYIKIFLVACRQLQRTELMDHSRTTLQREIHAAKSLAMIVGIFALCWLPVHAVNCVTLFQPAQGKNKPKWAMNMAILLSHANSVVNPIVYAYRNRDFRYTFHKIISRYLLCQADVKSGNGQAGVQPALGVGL
# experiment-description: A2bR antagonism IC50, cAMP TR-FRET in HEK-293 cells, high concentration of adenosine (30 μM);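 further: compounds preincubated 10 min with cells, then adenosine stimulation 30 min at room temperature in buffer with Rolipram 100 µM and EHNA 30 µM, TR-FRET read after 1 h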
# stated-conditions: A2BR IC50 (nM) (@30 μM Adenosine), HEK-293 cells expressing A2B receptor; agonist adenosine 30 μM; 2% HSA; inhibition of cAMP
IC50 by entry:
Quick reminder: number only, in nM, skip the unit.

Illustrative cases are given below, each with its answer.
compound	IC50, nM
Cc1nn2c(N)c(C#N)c(NCCc3ccn(C4(CCN)CC4)n3)nc2c1Cl [Example 151]	4610
CCc1c(C)nn2c(N)c(C#N)c(NCCc3cc(C)n(C4COCC4CO)n3)nc12 (single isomer, unassigned; (+)) [Example 168]	650
CCc1c(C)nn2c(N)c(C#N)c(NCCc3cccc(CCCO)n3)nc12 [Example 155]	429
Cc1nn2c(N)c(C#N)c(NCCc3ccn(C4(CO)CC4)n3)nc2c1Br [Example 69]	2050

Exercise: Data request, read-out IC50, for Cc1nn2c(N)c(C#N)c(NCCc3ccn(C4CCC4CO)n3)nc2c1C (single isomer, unassigned; (+)) [Example 104a]
Key: 2260
